B1: library; a variant is named by its letters at N, in order (parent)
chain: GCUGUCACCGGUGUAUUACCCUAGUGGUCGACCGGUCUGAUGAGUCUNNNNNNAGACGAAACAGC

Variants of: B1
Measurement notes: normalized RNA/DNA level without ligand (relative to sTRSVctl = 100) (log10 (% of sTRSVctl)); ligand: hypoxanthine (xanthine aptamer); higher = less ribozyme self-cleavage, higher mRNA level
Settings: HEK293T, reporter: mCherry (pCS4076), ligand present: no
The following variants are listed with their measured normalized RNA/DNA level without ligand (log10) values.
Property measured: normalized RNA/DNA level without ligand (log10)

[
  {
    "Mutation descriptor": "CGCCUU",
    "Quantitative readout": 1.92
  },
  {
    "Mutation descriptor": "CGGGCU",
    "Quantitative readout": 1.95
  },
  {
    "Mutation descriptor": "CGUCCA",
    "Quantitative readout": 1.92
  },
  {
    "Mutation descriptor": "CCGAGU",
    "Quantitative readout": 1.57
  },
  {
    "Mutation descriptor": "CCGAAU",
    "Quantitative readout": 1.66
  },
  {
    "Mutation descriptor": "CAGGGG",
    "Quantitative readout": 1.23
  },
  {
    "Mutation descriptor": "UAUUAU",
    "Quantitative readout": 1.8
  },
  {
    "Mutation descriptor": "GCCCAU",
    "Quantitative readout": 1.87
  },
  {
    "Mutation descriptor": "GCCAAU",
    "Quantitative readout": 1.8
  },
  {
    "Mutation descriptor": "GCCCCC",
    "Quantitative readout": 1.83
  },
  {
    "Mutation descriptor": "GCUUGA",
    "Quantitative readout": 1.82
  },
  {
    "Mutation descriptor": "GCCGAA",
    "Quantitative readout": 1.76
  },
  {
    "Mutation descriptor": "GUUACA",
    "Quantitative readout": 1.84
  },
  {
    "Mutation descriptor": "CUAGAG",
    "Quantitative readout": 1.64
  },
  {
    "Mutation descriptor": "CCAGAU",
    "Quantitative readout": 1.8
  },
  {
    "Mutation descriptor": "UCACUC",
    "Quantitative readout": 2.03
  },
  {
    "Mutation descriptor": "ACGGGA",
    "Quantitative readout": 1.37
  },
  {
    "Mutation descriptor": "UUUCGA",
    "Quantitative readout": 1.92
  },
  {
    "Mutation descriptor": "GGGACA",
    "Quantitative readout": 1.8
  },
  {
    "Mutation descriptor": "UCGUAA",
    "Quantitative readout": 1.53
  },
  {
    "Mutation descriptor": "AUUUCA",
    "Quantitative readout": 1.83
  },
  {
    "Mutation descriptor": "UAAUCU",
    "Quantitative readout": 1.87
  },
  {
    "Mutation descriptor": "GGAAUG",
    "Quantitative readout": 1.34
  },
  {
    "Mutation descriptor": "GGAACU",
    "Quantitative readout": 1.94
  },
  {
    "Mutation descriptor": "AGGUGU",
    "Quantitative readout": 1.49
  },
  {
    "Mutation descriptor": "CUGGCG",
    "Quantitative readout": 1.83
  },
  {
    "Mutation descriptor": "UCAAUU",
    "Quantitative readout": 1.89
  },
  {
    "Mutation descriptor": "UGGUUU",
    "Quantitative readout": 1.88
  },
  {
    "Mutation descriptor": "UGAAAU",
    "Quantitative readout": 1.76
  },
  {
    "Mutation descriptor": "AACGGA",
    "Quantitative readout": 1.62
  },
  {
    "Mutation descriptor": "GAAAAC",
    "Quantitative readout": 1.7
  },
  {
    "Mutation descriptor": "AAGCCG",
    "Quantitative readout": 1.26
  },
  {
    "Mutation descriptor": "GCAAUC",
    "Quantitative readout": 1.77
  },
  {
    "Mutation descriptor": "GCUGAA",
    "Quantitative readout": 1.76
  },
  {
    "Mutation descriptor": "UCUCUA",
    "Quantitative readout": 1.74
  },
  {
    "Mutation descriptor": "CCCGGA",
    "Quantitative readout": 1.88
  },
  {
    "Mutation descriptor": "UGAAGG",
    "Quantitative readout": 1.48
  },
  {
    "Mutation descriptor": "GCCCAG",
    "Quantitative readout": 1.4
  },
  {
    "Mutation descriptor": "ACAUAU",
    "Quantitative readout": 1.69
  }
]
